Values from the Immune Epitope Database (IEDB)

# system: HLA-A*69:01
# assayProtocol: IEDB peptide-MHC binding, purified MHC/direct/fluorescence; filed as Kd, often an IC50 or EC50 that approximates it; bounds were set here for any values at or beyond the usual limits of such assays
# conditionDetails: source organism: Pseudomonas aeruginosa UCBPP-PA14
observationType: Kd

Look up Kd of GLGGDASAY and report it.
≥ 20 µM

###

# system: HLA-A*01:01
# assayProtocol: IEDB peptide-MHC binding, purified MHC/direct/fluorescence; filed as Kd, often an IC50 or EC50 that approximates it; bounds were set here for any values at or beyond the usual limits of such assays
# conditionDetails: source organism: Mycobacterium tuberculosis str. Haarlem
pKd: −log10 of the molar value.
observationType: pKd

Look up pKd of IMANRAQVL and report it.
≤ 4.70

###

# system: HLA-A*03:01
# assayProtocol: IEDB peptide-MHC binding, purified MHC/competitive/fluorescence; filed as Kd, often an IC50 or EC50 that approximates it; bounds were set here for any values at or beyond the usual limits of such assays
# conditionDetails: source organism: Pseudomonas aeruginosa PACS2
observationType: Kd

Look up Kd of KLIDVSKCI and report it.
≥ 20 µM

###

# system: HLA-A*03:01
# assayProtocol: IEDB peptide-MHC binding, purified MHC/direct/fluorescence; filed as Kd, often an IC50 or EC50 that approximates it; bounds were set here for any values at or beyond the usual limits of such assays
# conditionDetails: source organism: Encephalitozoon cuniculi GB-M1
observationType: Kd

Retrieve Kd on HLA-A*03:01; query FSFFMNENF
≥ 20 µM

###

# system: HLA-B*45:06
# assayProtocol: IEDB peptide-MHC binding, purified MHC/competitive/fluorescence; filed as Kd, often an IC50 or EC50 that approximates it; bounds were set here for any values at or beyond the usual limits of such assays
# conditionDetails: source organism: Entamoeba histolytica HM-1:IMSS
observationType: Kd

Look up Kd of KLMPGSIYV and report it.
≥ 5 µM

###

# system: HLA-A*32:15
# assayProtocol: IEDB peptide-MHC binding, purified MHC/competitive/fluorescence; filed as Kd, often an IC50 or EC50 that approximates it; bounds were set here for any values at or beyond the usual limits of such assays
# conditionDetails: source organism: Orthohantavirus sinnombreense
observationType: pKd
Give only the number. pKd is defined as minus log10 of concentration in molar units.

Retrieve pKd on HLA-A*32:15; query YTFTSLFSL
7.09

###

# system: HLA-A*24:02
# assayProtocol: IEDB peptide-MHC binding, purified MHC/competitive/radioactivity; filed as Kd, often an IC50 or EC50 that approximates it; bounds were set here for any values at or beyond the usual limits of such assays
# conditionDetails: source organism: Vaccinia virus WR
observationType: pKd
Give only the number. pKd is defined as minus log10 of concentration in molar units.

Look up pKd of DMCDIYLLY and report it.
5.68

###

# system: HLA-B*07:02
# assayProtocol: IEDB peptide-MHC binding, purified MHC/competitive/radioactivity; filed as Kd, often an IC50 or EC50 that approximates it; bounds were set here for any values at or beyond the usual limits of such assays
# conditionDetails: source organism: Vaccinia virus Copenhagen
observationType: Kd (µM)
# unit: µM | format: bare number

Look up Kd of FLIVSLCPT and report it.
12

###

Each entry below carries its reported log10 of Kd.
# system: HLA-B*53:01
# assayProtocol: IEDB peptide-MHC binding, purified MHC/competitive/radioactivity; filed as Kd, often an IC50 or EC50 that approximates it; bounds were set here for any values at or beyond the usual limits of such assays
# conditionDetails: source organism: Dengue virus 1 Brazil/97-11/1997
Record value = log10 of Kd given in nM.

Some entries whose results are on file:
Look up log10 of Kd of LATGPLTTLW and report it.
1.99

Look up log10 of Kd of FPQSNAVIQ and report it.
2.72

Look up log10 of Kd of MTTEDMLSVW and report it.
2.93

Look up log10 of Kd of IPATLFVWY and report it.
1.00

Next:
Look up log10 of Kd of GASTSQETW and report it.
2.79
